These measurements were taken from the Human Domainome abundance scans (Beltran et al. 2025).

B1: Myocardin, residues 363 to 406; numbered along this chain, Q8IZQ8 (parent)
chain: KPGPLPPNLDDLKVSELRQQLRIRGLPVSGTKTALMDRLRPFQD

# Variants of: B1
# Protocol details: abundance fitness (aPCA) (normalised: wild type 0, dead -1); higher = more abundant; growth selection in yeast, the domain comes from the species named
# Study conditions: Homo sapiens
abundance fitness overview
Property name: abundance fitness

biopolymer_sequence=KPGPLPPNLDDLKVSELRQQLRIRGLPVSGTKTALMDMLRPFQD property_name="abundance fitness" assay_result=-0.445
biopolymer_sequence=KPGPLPPNLDDLKQSELRQQLRIRGLPVSGTKTALMDRLRPFQD property_name="abundance fitness" assay_result=-0.994
biopolymer_sequence=KPGPLPPNLDDLKVSELRQQLRIRGLPVSGGKTALMDRLRPFQD property_name="abundance fitness" assay_result=-0.214
biopolymer_sequence=KPGPLPPNLDDLKVSELRQQLRIQGLPVSGTKTALMDRLRPFQD property_name="abundance fitness" assay_result=-0.73
biopolymer_sequence=KPGPLPPNLDDLKVSELRQHLRIRGLPVSGTKTALMDRLRPFQD property_name="abundance fitness" assay_result=0.073
biopolymer_sequence=KPGPLPPNLDDLKVSEMRQQLRIRGLPVSGTKTALMDRLRPFQD property_name="abundance fitness" assay_result=-0.265
biopolymer_sequence=KPGPLPPNLDDLKVSELRQQLRIRFLPVSGTKTALMDRLRPFQD property_name="abundance fitness" assay_result=-0.175
biopolymer_sequence=KPGPLPPNLDDLKVSELRYQLRIRGLPVSGTKTALMDRLRPFQD property_name="abundance fitness" assay_result=-0.124
biopolymer_sequence=KPGPLPPNLDDLKVSELRQQLRIRGLPVAGTKTALMDRLRPFQD property_name="abundance fitness" assay_result=-0.071
biopolymer_sequence=KPGPLPNNLDDLKVSELRQQLRIRGLPVSGTKTALMDRLRPFQD property_name="abundance fitness" assay_result=0.346
biopolymer_sequence=KPGPLPPNLDDLKVSELRQQLRIRGLPVSGTKTALMIRLRPFQD property_name="abundance fitness" assay_result=-0.594
biopolymer_sequence=KPGPLPPNLDDLKVSELRQQLRIRGLPVSGTKTALMDPLRPFQD property_name="abundance fitness" assay_result=-0.219
biopolymer_sequence=KPGPLPPNLDDLKVSELRQQLRIRGLPKSGTKTALMDRLRPFQD property_name="abundance fitness" assay_result=-0.436
biopolymer_sequence=KPGPLPPNLDDLKVSELRQQLAIRGLPVSGTKTALMDRLRPFQD property_name="abundance fitness" assay_result=-0.138
biopolymer_sequence=KPGPLPPNLDDLKVSELRQQLRIRGLPVSGTKPALMDRLRPFQD property_name="abundance fitness" assay_result=-0.17
biopolymer_sequence=KPGPLPPNLDDLKVSELRQQLRIRGLPVSGTKTKLMDRLRPFQD property_name="abundance fitness" assay_result=-0.4
biopolymer_sequence=KPGPLPPNLDDLKVSELRQQLRIRGLPVSGTKTALMDRVRPFQD property_name="abundance fitness" assay_result=-0.594
biopolymer_sequence=KPGPLPPNLDDLKVSELRQQLRIRGLPVCGTKTALMDRLRPFQD property_name="abundance fitness" assay_result=-0.191
biopolymer_sequence=KPGPLPPNLDALKVSELRQQLRIRGLPVSGTKTALMDRLRPFQD property_name="abundance fitness" assay_result=0.085
biopolymer_sequence=KPGPLPPNLDDLKVSELRQQLRIRGLPVSGTKTALMDRLRPFQQ property_name="abundance fitness" assay_result=-0.206
biopolymer_sequence=KPGPLPPNLDDLKVSELRQQLRIRGLPVSGTKTALMDDLRPFQD property_name="abundance fitness" assay_result=-0.795
biopolymer_sequence=KPGPLPPNLDDLKVGELRQQLRIRGLPVSGTKTALMDRLRPFQD property_name="abundance fitness" assay_result=-0.122
biopolymer_sequence=KPGPLPPNLDKLKVSELRQQLRIRGLPVSGTKTALMDRLRPFQD property_name="abundance fitness" assay_result=0.083
biopolymer_sequence=KPGPLPPNLDDLKVSELRQQLRIRGLPVSGTKTALMQRLRPFQD property_name="abundance fitness" assay_result=-0.165
biopolymer_sequence=YPGPLPPNLDDLKVSELRQQLRIRGLPVSGTKTALMDRLRPFQD property_name="abundance fitness" assay_result=-0.608
biopolymer_sequence=DPGPLPPNLDDLKVSELRQQLRIRGLPVSGTKTALMDRLRPFQD property_name="abundance fitness" assay_result=-0.268
biopolymer_sequence=KPGPLPPNLDDLKVSENRQQLRIRGLPVSGTKTALMDRLRPFQD property_name="abundance fitness" assay_result=-1
biopolymer_sequence=KPGPLPPNLDELKVSELRQQLRIRGLPVSGTKTALMDRLRPFQD property_name="abundance fitness" assay_result=-0.082
biopolymer_sequence=KPGPLPPNLDDTKVSELRQQLRIRGLPVSGTKTALMDRLRPFQD property_name="abundance fitness" assay_result=-0.401
biopolymer_sequence=KPGPLPPNLDDLKVSELRQQGRIRGLPVSGTKTALMDRLRPFQD property_name="abundance fitness" assay_result=-0.68
biopolymer_sequence=KPGPLPPNLDDLKVSELRQQLRIRGLPVSGTKTALMDRLTPFQD property_name="abundance fitness" assay_result=-0.12
biopolymer_sequence=KPGPLPPNLDDLKVSEIRQQLRIRGLPVSGTKTALMDRLRPFQD property_name="abundance fitness" assay_result=-0.6
biopolymer_sequence=KPGPLPPNLDDLKVSELRQCLRIRGLPVSGTKTALMDRLRPFQD property_name="abundance fitness" assay_result=-0.395
biopolymer_sequence=KAGPLPPNLDDLKVSELRQQLRIRGLPVSGTKTALMDRLRPFQD property_name="abundance fitness" assay_result=0.25
biopolymer_sequence=KPGPLPPNSDDLKVSELRQQLRIRGLPVSGTKTALMDRLRPFQD property_name="abundance fitness" assay_result=-0.605
biopolymer_sequence=KPGPLPPNLDDLKVSELCQQLRIRGLPVSGTKTALMDRLRPFQD property_name="abundance fitness" assay_result=0.116
biopolymer_sequence=KPGPLPPNLDDLKVSELRQQVRIRGLPVSGTKTALMDRLRPFQD property_name="abundance fitness" assay_result=-0.432
biopolymer_sequence=KPGPLPPNLDDLKVSELRQQLRIRGLPVSGTKRALMDRLRPFQD property_name="abundance fitness" assay_result=-0.055
biopolymer_sequence=KPGPLPPNLYDLKVSELRQQLRIRGLPVSGTKTALMDRLRPFQD property_name="abundance fitness" assay_result=0.026
biopolymer_sequence=KPGPLPPNLDDLKVSELFQQLRIRGLPVSGTKTALMDRLRPFQD property_name="abundance fitness" assay_result=-0.481
biopolymer_sequence=KMGPLPPNLDDLKVSELRQQLRIRGLPVSGTKTALMDRLRPFQD property_name="abundance fitness" assay_result=0.387
biopolymer_sequence=KPGGLPPNLDDLKVSELRQQLRIRGLPVSGTKTALMDRLRPFQD property_name="abundance fitness" assay_result=-0.229
biopolymer_sequence=KPGPLPPNLDDLKVSELRQQLRWRGLPVSGTKTALMDRLRPFQD property_name="abundance fitness" assay_result=-0.291
biopolymer_sequence=KPYPLPPNLDDLKVSELRQQLRIRGLPVSGTKTALMDRLRPFQD property_name="abundance fitness" assay_result=-0.067
biopolymer_sequence=KPGPLPPNLDDLKTSELRQQLRIRGLPVSGTKTALMDRLRPFQD property_name="abundance fitness" assay_result=-0.222
biopolymer_sequence=KPGPLPPNLDDLKDSELRQQLRIRGLPVSGTKTALMDRLRPFQD property_name="abundance fitness" assay_result=-0.702
biopolymer_sequence=KPGPLPPNLDDLKVSELRQQERIRGLPVSGTKTALMDRLRPFQD property_name="abundance fitness" assay_result=-0.42
biopolymer_sequence=KPGPLPPNLDDLKVSELGQQLRIRGLPVSGTKTALMDRLRPFQD property_name="abundance fitness" assay_result=-0.888
biopolymer_sequence=KPGPLPPNLDDLKVSELRQQLRIRGLPVSGTKTALTDRLRPFQD property_name="abundance fitness" assay_result=-0.27
biopolymer_sequence=KPGPLPSNLDDLKVSELRQQLRIRGLPVSGTKTALMDRLRPFQD property_name="abundance fitness" assay_result=-0.009
biopolymer_sequence=KPGPLPPNLDDLKVSELRQQLLIRGLPVSGTKTALMDRLRPFQD property_name="abundance fitness" assay_result=-0.374
biopolymer_sequence=KPGPLPPNLDDLKVSELRQQLRIRGLPVSGTKTPLMDRLRPFQD property_name="abundance fitness" assay_result=-0.825
biopolymer_sequence=KPGPLPPNLDDLKVSELRQQLRIDGLPVSGTKTALMDRLRPFQD property_name="abundance fitness" assay_result=-0.536
biopolymer_sequence=KPGPLPPNLDDLKVSELRQQLRIAGLPVSGTKTALMDRLRPFQD property_name="abundance fitness" assay_result=-0.695
biopolymer_sequence=KPGPLPPNLDDLKVSELRQQLRIRGLPVSGTKTDLMDRLRPFQD property_name="abundance fitness" assay_result=0.137
biopolymer_sequence=KPGPLPPNLDDLKVSELRQQLRIRGLPVSGTKTAVMDRLRPFQD property_name="abundance fitness" assay_result=-0.459
biopolymer_sequence=KPGPLPPNLDDLKVSELRQQLRIRGLPVSGTKTANMDRLRPFQD property_name="abundance fitness" assay_result=-0.613
biopolymer_sequence=KPGPLPPNLDDLKVSELRQQLRIRGLPVSGTKTALMDRLRPLQD property_name="abundance fitness" assay_result=0.111
biopolymer_sequence=KPGPLPPNLDDLKPSELRQQLRIRGLPVSGTKTALMDRLRPFQD property_name="abundance fitness" assay_result=-0.247
biopolymer_sequence=KPGPEPPNLDDLKVSELRQQLRIRGLPVSGTKTALMDRLRPFQD property_name="abundance fitness" assay_result=-0.13
biopolymer_sequence=KPGPLPPNLDDLKVSELRQQLCIRGLPVSGTKTALMDRLRPFQD property_name="abundance fitness" assay_result=-0.194
biopolymer_sequence=KPGPLPPNLDDNKVSELRQQLRIRGLPVSGTKTALMDRLRPFQD property_name="abundance fitness" assay_result=-0.507
biopolymer_sequence=KPGPLPPNLDDLKWSELRQQLRIRGLPVSGTKTALMDRLRPFQD property_name="abundance fitness" assay_result=-1.02
biopolymer_sequence=KPGPLPPNLDDLKVPELRQQLRIRGLPVSGTKTALMDRLRPFQD property_name="abundance fitness" assay_result=-0.346
biopolymer_sequence=KPGPLPPNLKDLKVSELRQQLRIRGLPVSGTKTALMDRLRPFQD property_name="abundance fitness" assay_result=-0.076
biopolymer_sequence=KPGPLPPNLDDLKVSELRQQLRIRGLPDSGTKTALMDRLRPFQD property_name="abundance fitness" assay_result=0.294
biopolymer_sequence=KPGPLPPNLDDLKVSELRQGLRIRGLPVSGTKTALMDRLRPFQD property_name="abundance fitness" assay_result=-0.697
biopolymer_sequence=KPGPLPPNLDDLKVSELRQQLRIRGLPVSGTKTALMDRLRPFQC property_name="abundance fitness" assay_result=-0.297
biopolymer_sequence=KPGPLPPNLDDLKVSELRQQLRIRGLPVSGTKTALMARLRPFQD property_name="abundance fitness" assay_result=-0.265
biopolymer_sequence=KPGPLPPNLDDLKVSELRQQLRIRGLPVSLTKTALMDRLRPFQD property_name="abundance fitness" assay_result=-0.879
biopolymer_sequence=KPGPLPINLDDLKVSELRQQLRIRGLPVSGTKTALMDRLRPFQD property_name="abundance fitness" assay_result=0.107
biopolymer_sequence=KPGPLPPNLDDLKVSELRQQLRIRGLPVSGTKTAGMDRLRPFQD property_name="abundance fitness" assay_result=-0.489
biopolymer_sequence=KPGPLPPNLDDLKVSELRQQLRIRGLPVSGTKTALDDRLRPFQD property_name="abundance fitness" assay_result=-0.505
biopolymer_sequence=KPGPLPPNLDDLKVSELRQQLRIRGLPVSGTKCALMDRLRPFQD property_name="abundance fitness" assay_result=-0.072
biopolymer_sequence=NPGPLPPNLDDLKVSELRQQLRIRGLPVSGTKTALMDRLRPFQD property_name="abundance fitness" assay_result=0.11
biopolymer_sequence=KPGPLPPNLRDLKVSELRQQLRIRGLPVSGTKTALMDRLRPFQD property_name="abundance fitness" assay_result=-0.147
biopolymer_sequence=KPGPLPPNLDDLKVSELRQQLRIRGLPVSGTKTSLMDRLRPFQD property_name="abundance fitness" assay_result=-0.223
biopolymer_sequence=KPGPLPPNLDDLKVSELRQQLRIRGLPVSGTKTALMDRPRPFQD property_name="abundance fitness" assay_result=-0.373
biopolymer_sequence=KPGPLPPNLDDLKVSELRQQLRIRGLPVKGTKTALMDRLRPFQD property_name="abundance fitness" assay_result=-0.113
biopolymer_sequence=KPGPQPPNLDDLKVSELRQQLRIRGLPVSGTKTALMDRLRPFQD property_name="abundance fitness" assay_result=-0.131
biopolymer_sequence=KPGPLPPNLDDLKLSELRQQLRIRGLPVSGTKTALMDRLRPFQD property_name="abundance fitness" assay_result=-0.16
biopolymer_sequence=KPGPLPPNLDDLKVSELRQQLRCRGLPVSGTKTALMDRLRPFQD property_name="abundance fitness" assay_result=-0.315
biopolymer_sequence=KPGPLPPNLDDLKVSELRQQLRIRGLPVSGTQTALMDRLRPFQD property_name="abundance fitness" assay_result=-0.58
biopolymer_sequence=KPGDLPPNLDDLKVSELRQQLRIRGLPVSGTKTALMDRLRPFQD property_name="abundance fitness" assay_result=0.276
biopolymer_sequence=KPGPLPPNLDDLKVSELRQQLRIRGLPVSGTKTALMDRLWPFQD property_name="abundance fitness" assay_result=-0.731
biopolymer_sequence=KPGPLPPNLDDLKVSELRQQLRIRGLPVSGTKTALMDRLQPFQD property_name="abundance fitness" assay_result=-0.042
biopolymer_sequence=KPGPLPPNLDDLKVYELRQQLRIRGLPVSGTKTALMDRLRPFQD property_name="abundance fitness" assay_result=-0.274
biopolymer_sequence=KPGPLPPNKDDLKVSELRQQLRIRGLPVSGTKTALMDRLRPFQD property_name="abundance fitness" assay_result=-0.741
biopolymer_sequence=KPGPLPPNLDDLKVSELRQQLRIRGLPVSGTKTALMDRLVPFQD property_name="abundance fitness" assay_result=-0.376
